- subjectOfTest: Bone morphogenetic protein receptor type-1A (Homo sapiens, UniProt P36894)
- Sequence (P36894 whole entry): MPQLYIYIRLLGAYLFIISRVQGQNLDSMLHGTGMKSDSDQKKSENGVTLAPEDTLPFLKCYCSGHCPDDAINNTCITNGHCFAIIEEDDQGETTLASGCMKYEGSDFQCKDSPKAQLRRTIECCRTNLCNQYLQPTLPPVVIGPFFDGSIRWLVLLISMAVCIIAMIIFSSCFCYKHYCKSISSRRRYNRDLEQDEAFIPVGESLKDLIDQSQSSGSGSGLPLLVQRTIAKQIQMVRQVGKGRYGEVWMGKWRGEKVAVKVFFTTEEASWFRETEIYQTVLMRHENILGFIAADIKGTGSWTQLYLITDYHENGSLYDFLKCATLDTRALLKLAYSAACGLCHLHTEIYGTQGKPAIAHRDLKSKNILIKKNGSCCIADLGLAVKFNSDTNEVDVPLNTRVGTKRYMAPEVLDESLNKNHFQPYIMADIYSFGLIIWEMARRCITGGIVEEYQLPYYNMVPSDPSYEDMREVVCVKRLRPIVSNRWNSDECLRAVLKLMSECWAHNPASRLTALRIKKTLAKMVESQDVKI
The source made the active and inactive calls.
Return exactly one item of t for active, f for inactive

Sample answers from the record:
>>> grouplabel("Cc1[nH]c(/C=C2\\C(=O)Nc3ccccc32)c(C)c1CCC(=O)O [ORANTINIB]")
"f"
>>> grouplabel("COCC(=O)NC/C=C/c1ccc2ncnc(Nc3ccc(Oc4ccc(C)nc4)c(C)c3)c2c1")
"f"
>>> grouplabel("CCNC(=O)C#Cc1ccc2c(c1)NC(=O)/C2=C(\\Nc1ccc(CN(C)C)cc1)c1ccccc1")
"f"

// outcome(item) with item = "C=CC(=O)N1CCC[C@H](n2c(=O)n(-c3ccc(Oc4ccccc4)cc3)c3c(N)ncnc32)C1" f

// outcome(item) with item = "Cn1ncc(Cl)c1-c1cc(C(=O)N[C@H](CN)Cc2ccc(F)c(F)c2)oc1Cl" f

// outcome(item) with item = "Cc1nc2cc(-c3nn(C(C)C)c4ncnc(N)c34)ccc2o1" t

// outcome(item) with item = "Cn1cnc2c(F)c(Nc3ccc(Br)cc3F)c(C(=O)NOCCO)cc21" f

// outcome(item) with item = "Cn1cc(-c2cnn3c(N)c(Br)c([C@@H]4CCCNC4)nc23)cn1" f

* * *

- subjectOfTest: Protein-tyrosine kinase 2-beta (Homo sapiens)
- Sequence (Q14289 whole entry): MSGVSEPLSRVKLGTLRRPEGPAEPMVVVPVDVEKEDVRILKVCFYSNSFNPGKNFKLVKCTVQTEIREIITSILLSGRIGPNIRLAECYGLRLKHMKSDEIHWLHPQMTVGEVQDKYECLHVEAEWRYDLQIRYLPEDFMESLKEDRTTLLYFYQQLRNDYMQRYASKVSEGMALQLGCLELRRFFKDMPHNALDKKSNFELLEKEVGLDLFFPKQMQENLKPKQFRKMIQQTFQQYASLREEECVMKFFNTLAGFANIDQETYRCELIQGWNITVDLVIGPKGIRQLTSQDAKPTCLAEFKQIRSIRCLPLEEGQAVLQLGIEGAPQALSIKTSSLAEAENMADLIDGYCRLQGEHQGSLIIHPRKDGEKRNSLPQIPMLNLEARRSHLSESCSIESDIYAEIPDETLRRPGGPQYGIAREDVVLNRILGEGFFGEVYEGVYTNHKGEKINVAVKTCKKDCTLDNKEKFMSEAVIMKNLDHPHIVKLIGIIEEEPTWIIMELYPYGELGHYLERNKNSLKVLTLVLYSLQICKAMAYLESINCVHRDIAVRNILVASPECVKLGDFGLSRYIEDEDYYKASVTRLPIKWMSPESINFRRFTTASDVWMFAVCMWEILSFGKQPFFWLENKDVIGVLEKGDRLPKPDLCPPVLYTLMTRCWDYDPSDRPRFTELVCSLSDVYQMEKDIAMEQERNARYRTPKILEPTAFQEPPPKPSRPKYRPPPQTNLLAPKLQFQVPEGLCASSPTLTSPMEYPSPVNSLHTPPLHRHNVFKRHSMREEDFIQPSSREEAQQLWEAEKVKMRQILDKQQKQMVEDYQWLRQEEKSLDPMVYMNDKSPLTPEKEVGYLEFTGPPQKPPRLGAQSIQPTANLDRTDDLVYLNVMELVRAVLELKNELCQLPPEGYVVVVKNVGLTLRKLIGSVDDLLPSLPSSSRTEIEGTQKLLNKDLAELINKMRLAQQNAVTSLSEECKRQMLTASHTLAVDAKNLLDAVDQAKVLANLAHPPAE
Activity calls are given as the source filed them.
Return exactly one item of active, inactive

>>> grouplabel("O=C(Nc1nc2cccc(-c3ccc(CN4CCS(=O)(=O)CC4)cc3)n2n1)C1CC1")
"inactive"
>>> grouplabel("CCS(=O)(=O)c1cccc(-c2cc(C(=O)NC3CCN(C)CC3)c(C)c3[nH]c4ncc(C)cc4c23)c1")
"active"

Note: attention shifts to another entry.
// outcome(item) with item = "Cc1cc(Nc2ncc(Cl)c(Nc3ccccc3S(=O)(=O)C(C)C)n2)c(OC(C)C)cc1C1CCNCC1" active

* * *

A set of molecules tested on Fibroblast growth factor receptor 1 (Homo sapiens, UniProt P11362), with measured Kd:
The source made the active and inactive calls.

Guide cases for Kd, answers given:
>>> recordedmeasurement("Cc1nc(NC(=O)N2CCC[C@H]2C(N)=O)sc1-c1ccnc(C(C)(C)C(F)(F)F)c1")
"> 30 µM (inactive)"
>>> recordedmeasurement("COc1c(OCCCN2CCOCC2)ccc2c1N=C(NC(=O)c1cnc(N)nc1)N1CCN=C21")
"> 30 µM (inactive)"

Next molecule, Kd to be filled in.
Data point: "Cc1cnc(NC(=O)Nc2cc(Br)c(C)cc2OC[C@@H]2CNCCO2)cn1" ; Kd = > 30 µM (inactive)

* * *

- subjectOfTest: Cyclin-dependent kinase 17 (Homo sapiens)
- Sequence (Q00537 whole entry): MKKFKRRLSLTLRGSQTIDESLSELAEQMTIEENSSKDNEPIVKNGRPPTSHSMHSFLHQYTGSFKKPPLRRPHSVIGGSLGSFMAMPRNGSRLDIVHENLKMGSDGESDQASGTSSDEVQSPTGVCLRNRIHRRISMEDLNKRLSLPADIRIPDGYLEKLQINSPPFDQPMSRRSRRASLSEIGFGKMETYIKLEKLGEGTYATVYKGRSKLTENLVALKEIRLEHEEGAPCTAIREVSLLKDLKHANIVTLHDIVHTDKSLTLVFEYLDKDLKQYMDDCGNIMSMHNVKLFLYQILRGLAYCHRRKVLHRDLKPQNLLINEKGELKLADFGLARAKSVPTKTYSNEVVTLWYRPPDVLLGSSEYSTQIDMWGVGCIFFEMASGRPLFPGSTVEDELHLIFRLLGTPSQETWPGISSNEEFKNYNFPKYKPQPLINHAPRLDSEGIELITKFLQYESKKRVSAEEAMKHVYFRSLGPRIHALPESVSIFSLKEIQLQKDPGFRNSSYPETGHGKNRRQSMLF
Calls of active or inactive are those of the source.
Return exactly one item of 1.0 = active, 0.0 = inactive

Sample answers from the record:
>>> grouplabel("O=C(Nc1c[nH]nc1-c1nc2cc(CN3CCOCC3)ccc2[nH]1)NC1CC1")
1.0
>>> grouplabel("COc1cc(Nc2ncc3c(n2)-c2ccc(Cl)cc2C(c2c(F)cccc2OC)=NC3)ccc1C(=O)O")
0.0

Note: attention shifts to another entry.
// outcome(item) with item = "C=CC(=O)N1CCC[C@H](n2c(=O)n(-c3ccc(Oc4ccccc4)cc3)c3c(N)ncnc32)C1" 0.0

* * *

- subjectOfTest: Activated CDC42 kinase 1 (Homo sapiens, UniProt Q07912)
Calls of active or inactive are those of the source.
Return exactly one item of 1.0 (active), 0.0 (inactive)

// outcome(item) with item = NC(=O)Nc1cc(-c2cccc(F)c2)sc1C(=O)N[C@H]1CCCNC1 [AZD-7762] 1.0

// outcome(item) with item = Cc1nc(Nc2n[nH]c3c2CN(C(=O)N[C@H](CN(C)C)c2ccccc2)C3(C)C)c2sccc2n1 [PF-03758309] 0.0

* * *

- subjectOfTest: Protein kinase C alpha type (Homo sapiens)
Active and inactive are the calls of the source.
Return exactly one item of 1 (yes) = active, 0 (no) = inactive

// outcome(item) with item = "CCCCCCCCCCCCCCCCCCOP(=O)([O-])OC1CC[N+](C)(C)CC1" 0 (no)

// outcome(item) with item = "CNC(=O)c1ccccc1Sc1ccc2c(/C=C/c3ccccn3)n[nH]c2c1" 0 (no)

// outcome(item) with item = "O=C(Nc1cc(C(F)(F)F)cc(C(F)(F)F)c1)c1cc(Cl)ccc1O" 0 (no)

* * *

- subjectOfTest: Serine/threonine-protein kinase SIK2 (Homo sapiens)
- Sequence (Q9H0K1 whole entry): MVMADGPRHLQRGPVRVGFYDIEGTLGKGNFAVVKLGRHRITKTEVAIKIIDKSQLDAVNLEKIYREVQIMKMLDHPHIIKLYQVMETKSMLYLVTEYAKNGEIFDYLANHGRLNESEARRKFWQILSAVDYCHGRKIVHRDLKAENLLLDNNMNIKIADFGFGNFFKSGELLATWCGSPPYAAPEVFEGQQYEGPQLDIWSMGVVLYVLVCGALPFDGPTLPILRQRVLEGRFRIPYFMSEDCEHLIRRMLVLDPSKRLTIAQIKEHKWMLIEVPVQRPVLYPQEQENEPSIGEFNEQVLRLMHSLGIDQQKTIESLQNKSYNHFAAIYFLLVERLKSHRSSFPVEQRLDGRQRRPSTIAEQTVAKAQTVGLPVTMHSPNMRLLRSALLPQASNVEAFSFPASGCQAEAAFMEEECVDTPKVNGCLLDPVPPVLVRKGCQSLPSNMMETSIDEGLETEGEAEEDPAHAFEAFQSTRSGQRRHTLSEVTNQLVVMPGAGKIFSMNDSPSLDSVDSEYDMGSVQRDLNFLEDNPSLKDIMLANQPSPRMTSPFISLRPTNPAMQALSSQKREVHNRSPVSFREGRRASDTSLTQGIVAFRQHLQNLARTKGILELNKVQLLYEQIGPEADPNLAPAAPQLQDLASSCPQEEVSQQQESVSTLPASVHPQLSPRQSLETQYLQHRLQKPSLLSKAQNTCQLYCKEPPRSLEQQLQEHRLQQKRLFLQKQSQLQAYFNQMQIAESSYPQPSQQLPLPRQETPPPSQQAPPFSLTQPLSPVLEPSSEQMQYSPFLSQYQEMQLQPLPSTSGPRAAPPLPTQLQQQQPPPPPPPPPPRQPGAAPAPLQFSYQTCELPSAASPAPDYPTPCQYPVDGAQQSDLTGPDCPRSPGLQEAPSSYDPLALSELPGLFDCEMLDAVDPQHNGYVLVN
Calls of active or inactive are those of the source.
Return exactly one item of T for active, F for inactive

>>> grouplabel("Cn1cc(-c2cnc3ccc4ccc(CS(=O)(=O)NCc5ccccn5)cc4c(=O)c3c2)cn1 [MK-8033]")
"F"
>>> grouplabel("O=C1NC(=O)[C@@H](c2cn3c4c(cccc24)CCC3)[C@@H]1c1c[nH]c2ccccc12 [TIVANTINIB]")
"F"
>>> grouplabel("O=C(Nc1nc2cccc(-c3ccc(CN4CCS(=O)(=O)CC4)cc3)n2n1)C1CC1 [FILGOTINIB]")
"F"
>>> grouplabel("CC(=O)NCC(=O)N1[C@@H]2CC[C@H]1c1ccc(Nc3ncc(C(F)(F)F)c(NC4CCC4)n3)cc12 [PF-03814735]")
"T"
>>> grouplabel("CC(C)(C)c1nc(-c2cccc(NS(=O)(=O)c3c(F)cccc3F)c2F)c(-c2ccnc(N)n2)s1 [DABRAFENIB]")
"T"
>>> grouplabel("Cc1csc(-c2nnc(Nc3ccc(Oc4ncccc4-c4ccnc(N)n4)cc3)c3ccccc23)c1 [AMG-900]")
"F"

// outcome(item) with item = "C[C@@H](Oc1cc(C(=O)Nc2ccc(C(=O)N3CCN(C)CC3)cc2)nnc1N)c1c(Cl)ccc(F)c1Cl" F

* * *

- subjectOfTest: Uncharacterized protein FLJ45252 (Homo sapiens, UniProt Q6ZSR9)
- Sequence (Q6ZSR9 whole entry): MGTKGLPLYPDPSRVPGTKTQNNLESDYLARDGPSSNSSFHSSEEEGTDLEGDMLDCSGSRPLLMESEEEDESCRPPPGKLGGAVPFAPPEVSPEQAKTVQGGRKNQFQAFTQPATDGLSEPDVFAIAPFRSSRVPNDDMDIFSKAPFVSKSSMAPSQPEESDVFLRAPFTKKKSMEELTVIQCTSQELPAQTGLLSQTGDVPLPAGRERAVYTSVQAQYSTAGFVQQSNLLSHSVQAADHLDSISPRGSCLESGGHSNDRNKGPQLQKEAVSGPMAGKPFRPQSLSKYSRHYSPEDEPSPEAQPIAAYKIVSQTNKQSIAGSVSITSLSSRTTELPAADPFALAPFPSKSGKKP
- conditionLabel: read-out: Kd apparent; k-562, colo 205, sk-n-be(2) and mv-4-11; further: in the data inactive means no Kd found up to 30 µM
Calls of active or inactive are those of the source.
Return exactly one item of 1 (yes) = active, 0 (no) = inactive

>>> grouplabel("COc1cc([C@@H]2c3cc4c(cc3[C@H](O)[C@H]3COC(=O)[C@@H]23)OCO4)cc(OC)c1OC [AXL-1717]")
"0 (no)"
>>> grouplabel("Cc1cc(C(=O)NOCCO)c(Nc2ccc(I)cc2F)n(C)c1=O [AZD-8330]")
"0 (no)"
>>> grouplabel("COCc1c(-c2ccc(NC(=O)Nc3cc(C(F)(F)F)ccc3F)c(F)c2)c2c(N)ncnn2c1CN1CCOCC1")
"0 (no)"
>>> grouplabel("CC(C)(C)c1nc(-c2cccc(NS(=O)(=O)c3c(F)cccc3F)c2F)c(-c2ccnc(N)n2)s1 [DABRAFENIB]")
"0 (no)"
>>> grouplabel("C[C@@H](N)c1ccc(C(=O)Nc2ccnc3[nH]ccc23)cc1 [Y-39983]")
"1 (yes)"

// outcome(item) with item = FC(F)(F)c1ccc(/C=C/c2nc(COc3ccc(CCCCn4ccnn4)cc3)co2)cc1 [MUBRITINIB] 0 (no)

// outcome(item) with item = Cc1nc(Nc2n[nH]c3c2CN(C(=O)N[C@H](CN(C)C)c2ccccc2)C3(C)C)c2sccc2n1 [PF-03758309] 1 (yes)

// outcome(item) with item = Cn1cc(-c2cnc3ccc4ccc(CS(=O)(=O)NCc5ccccn5)cc4c(=O)c3c2)cn1 [MK-8033] 0 (no)

* * *

- subjectOfTest: Serine/threonine-protein kinase D3 (Homo sapiens, UniProt O94806)
- Sequence (O94806 whole entry): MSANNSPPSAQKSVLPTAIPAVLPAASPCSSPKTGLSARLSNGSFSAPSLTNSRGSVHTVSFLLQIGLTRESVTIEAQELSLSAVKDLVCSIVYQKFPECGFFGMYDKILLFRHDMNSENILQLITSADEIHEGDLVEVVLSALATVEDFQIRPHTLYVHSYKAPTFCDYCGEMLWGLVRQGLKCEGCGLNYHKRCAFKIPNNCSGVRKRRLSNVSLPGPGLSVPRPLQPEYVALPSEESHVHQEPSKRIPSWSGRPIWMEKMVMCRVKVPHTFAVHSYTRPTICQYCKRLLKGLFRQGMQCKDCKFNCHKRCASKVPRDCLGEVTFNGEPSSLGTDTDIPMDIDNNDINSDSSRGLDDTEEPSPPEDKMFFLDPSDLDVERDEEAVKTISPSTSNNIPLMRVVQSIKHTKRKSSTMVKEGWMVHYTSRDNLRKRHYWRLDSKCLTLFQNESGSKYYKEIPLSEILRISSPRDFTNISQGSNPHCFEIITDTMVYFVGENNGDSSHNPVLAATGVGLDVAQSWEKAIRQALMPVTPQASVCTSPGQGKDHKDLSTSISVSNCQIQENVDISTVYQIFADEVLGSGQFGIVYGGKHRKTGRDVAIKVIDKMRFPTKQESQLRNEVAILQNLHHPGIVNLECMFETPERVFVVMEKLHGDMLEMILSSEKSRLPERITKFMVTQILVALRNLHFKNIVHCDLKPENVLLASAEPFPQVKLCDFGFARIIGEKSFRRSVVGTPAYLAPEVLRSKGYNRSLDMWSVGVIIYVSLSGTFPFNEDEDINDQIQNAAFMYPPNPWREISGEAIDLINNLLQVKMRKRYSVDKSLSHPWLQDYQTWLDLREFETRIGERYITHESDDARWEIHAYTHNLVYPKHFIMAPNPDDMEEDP
Calls of active or inactive are those of the source.
Return exactly one item of active, inactive

>>> grouplabel("CCn1c(C(=O)N(C2CC2)C2CC2)cc2c3c(ncn3C)c(Nc3cc(C)n(C)n3)nc21")
"inactive"

// outcome(item) with item = "CNC(=O)c1nn(C)c2c1C(C)(C)Cc1cnc(Nc3ccc(N4CCN(C)CC4)cc3)nc1-2" active

// outcome(item) with item = "COc1cc([C@@H]2c3cc4c(cc3[C@H](O)[C@H]3COC(=O)[C@@H]23)OCO4)cc(OC)c1OC" inactive

// outcome(item) with item = "COCC(=O)NC/C=C/c1ccc2ncnc(Nc3ccc(Oc4ccc(C)nc4)c(C)c3)c2c1" inactive

// outcome(item) with item = "C#Cc1cccc(Nc2ncnc3cc(OC)c(OCCCCCCC(=O)NO)cc23)c1" inactive

// outcome(item) with item = "COc1ccc(S(=O)(=O)N(C(C)=O)c2ccccc2/C=C/c2cc[n+]([O-])cc2)cc1" inactive

// outcome(item) with item = "NC1(c2ccc(-c3nc4ccn5c(=O)[nH]nc5c4cc3-c3ccccc3)cc2)CCC1" inactive

* * *

- subjectOfTest: Serine/threonine-protein kinase PAK 6 (Homo sapiens, UniProt Q9NQU5)
- Sequence (Q9NQU5 whole entry): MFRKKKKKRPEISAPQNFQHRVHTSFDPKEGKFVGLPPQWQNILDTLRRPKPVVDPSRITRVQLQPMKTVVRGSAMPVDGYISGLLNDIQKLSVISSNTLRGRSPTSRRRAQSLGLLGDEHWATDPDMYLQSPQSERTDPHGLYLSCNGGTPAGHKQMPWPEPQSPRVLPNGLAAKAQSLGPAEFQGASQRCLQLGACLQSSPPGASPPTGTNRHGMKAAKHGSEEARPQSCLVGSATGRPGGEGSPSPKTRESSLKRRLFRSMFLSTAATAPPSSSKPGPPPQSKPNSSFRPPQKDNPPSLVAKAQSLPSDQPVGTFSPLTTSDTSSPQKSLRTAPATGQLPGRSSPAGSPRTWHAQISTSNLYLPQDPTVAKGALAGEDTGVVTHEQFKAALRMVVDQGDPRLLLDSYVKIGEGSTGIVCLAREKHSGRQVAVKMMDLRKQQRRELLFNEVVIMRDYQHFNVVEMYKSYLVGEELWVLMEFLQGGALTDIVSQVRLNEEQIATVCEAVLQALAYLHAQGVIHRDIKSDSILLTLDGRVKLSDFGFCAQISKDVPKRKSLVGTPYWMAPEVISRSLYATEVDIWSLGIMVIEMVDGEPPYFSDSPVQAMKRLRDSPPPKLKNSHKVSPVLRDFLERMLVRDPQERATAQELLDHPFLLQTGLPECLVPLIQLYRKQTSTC
Activity calls are given as the source filed them.
Return exactly one item of T = active, F = inactive

Sample answers from the record:
>>> grouplabel("Cc1nc2cc(-c3nn(C(C)C)c4ncnc(N)c34)ccc2o1")
"F"
>>> grouplabel("N#CC1(c2ccc(NC(=O)c3cccnc3NCc3ccncc3)cc2)CCCC1")
"F"
>>> grouplabel("Cn1cc(-c2cnc3ccc4ccc(CS(=O)(=O)NCc5ccccn5)cc4c(=O)c3c2)cn1")
"F"

// outcome(item) with item = C=CC(=O)Nc1cc2c(Nc3ccc(F)c(Cl)c3)ncnc2cc1C#CC(C)(C)N1CCN(C)CC1 [AV-412 FREE BASE] F

// outcome(item) with item = "C[C@H]1CNCCCN1S(=O)(=O)c1cccc2cncc(F)c12" F

// outcome(item) with item = "Cc1cc(Nc2ncc(Cl)c(Nc3ccccc3S(=O)(=O)C(C)C)n2)c(OC(C)C)cc1C1CCNCC1" F

// outcome(item) with item = "Cc1cccc(-c2nn3c(c2-c2ccnc4ccc(C(N)=O)cc24)CCC3)n1" F

// outcome(item) with item = "C=CC(=O)N1CCC[C@H](n2c(=O)n(-c3ccc(Oc4ccccc4)cc3)c3c(N)ncnc32)C1" F

// outcome(item) with item = "Cc1nc(Nc2n[nH]c3c2CN(C(=O)N[C@H](CN(C)C)c2ccccc2)C3(C)C)c2sccc2n1" T
